B1: Formin-binding protein 4, residues 200 to 261; numbered along this chain, Q8N3X1 (parent)
chain: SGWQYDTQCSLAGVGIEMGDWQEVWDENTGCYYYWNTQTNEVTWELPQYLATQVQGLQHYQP

# Variants of: B1
# protocol.description: abundance fitness (aPCA) (normalised: wild type 0, dead -1); higher = more abundant; growth selection in yeast, the domain comes from the species named
# experimental.conditions: Homo sapiens
endpoint.name: abundance fitness
Please reply with the value in numeric form only.

Input: Please look up its abundance fitness: "P47Y"
Output: -1.11

Input: Please look up its abundance fitness: "Y33E"
Output: -0.458

Input: Please look up its abundance fitness: "Q53S"
Output: -0.765

Input: Please look up its abundance fitness: "L11G"
Output: -0.678

Input: Please look up its abundance fitness: "V14S"
Output: -0.163

Input: Please look up its abundance fitness: "T37K"
Output: 0.09

Source of measurements: the Human Domainome abundance scans (Beltran et al. 2025)
